The origin of these recorded values is patent US20010044445A1.

# Tested on: Human peripheral blood mononuclear cells
# assay: Human Concanavalin-A Proliferation Assay (Con HU Assay)
# Type: cell-based
# condition.notes: Homo sapiens, PBMC, 72 h, concentration 100 μm (in parentheses in the cell); concanavalin-A stimulated human PBMC, 3 days; read-out: % Inhibition of proliferation (at concentrations of 1,10, or 100 μm)
Record form. Attribute: inhibition at 100 µM. Fill in for each entry.

# inhibition at 100 µM of `Cc1ccc([N+](=O)[O-])c(C(=O)Nc2ccc(-n3nc(C(F)(F)F)cc3C(F)(F)F)cc2)c1` = 100%

# inhibition at 100 µM of `CSCCC(=O)Nc1ccc(-n2nc(C(F)(F)F)cc2C(F)(F)F)cc1` = 98%

# inhibition at 100 µM of `O=C(CCCl)Nc1ccc(-n2nc(C(F)(F)F)cc2C(F)(F)F)cc1` = 100%

# inhibition at 100 µM of `O=C(Nc1ccc(-n2nc(C(F)(F)F)cc2C(F)(F)F)cc1)c1ccc(C(F)(F)F)cc1` = 99%

# inhibition at 100 µM of `O=C(Nc1ccc(-n2nc(C(F)(F)F)cc2C(F)(F)F)cc1)c1cccc(Br)c1` = 100%

# inhibition at 100 µM of `CC(C)(C)OC(=O)N1CCC(C(=O)Nc2ccc(-n3nc(C(F)(F)F)cc3C(F)(F)F)cc2)CC1` = 100%

# inhibition at 100 µM of `O=C(Nc1ccc(-n2nc(C(F)(F)F)cc2C(F)(F)F)cc1)c1cccc(C(F)(F)F)c1` = 100%

# inhibition at 100 µM of `Cc1noc(C)c1C(=O)Nc1ccc(-n2nc(C(F)(F)F)cc2C(F)(F)F)cc1` = 100%

# inhibition at 100 µM of `Cc1noc(C)c1C(=O)Nc1ccc(-n2nc(C(F)(F)F)cc2C)cc1` = 99%

# inhibition at 100 µM of `O=C(Nc1ccc(-n2nc(C(F)(F)F)cc2C(F)(F)F)cc1)c1ccccc1` = 92%

# inhibition at 100 µM of `O=C(Nc1ccc(-n2nc(C(F)(F)F)cc2C(F)(F)F)cc1)c1cccnc1Cl` = 100%

# inhibition at 100 µM of `CCCC(=O)Nc1ccc(-n2nc(C(F)(F)F)cc2C(F)(F)F)cc1` = 100%

# inhibition at 100 µM of `O=C(Nc1ccc(-n2nc(C(F)(F)F)cc2C(F)(F)F)cc1)c1ccc(Cl)nc1Cl` = 100%

# inhibition at 100 µM of `O=C(Nc1ccc(-n2nc(C(F)(F)F)cc2C(F)(F)F)cc1)C1CCCCCC1` = 100%

# inhibition at 100 µM of `O=C(Nc1ccc(-n2nc(C(F)(F)F)cc2C(F)(F)F)cc1)Nc1cccc([N+](=O)[O-])c1` = 100%

# inhibition at 100 µM of `O=C(Nc1ccc(-n2nc(C(F)(F)F)cc2C(F)(F)F)cc1)c1cccc([N+](=O)[O-])c1` = 100%

# inhibition at 100 µM of `O=C(Nc1ccc(-n2nc(C(F)(F)F)cc2C(F)(F)F)cc1)c1ccc(I)cc1` = 98%

---

Record form. Attribute: melting point. Fill in for each entry.

# melting point of `O=C(Nc1ccc(-n2nc(C(F)(F)F)cc2C(F)(F)F)cc1)C1CCCCCC1` = 174 to 175 °C

# melting point of `O=C(Nc1ccc(-n2nc(C(F)(F)F)cc2C(F)(F)F)cc1)c1cnns1` = 213 to 214 °C

# melting point of O=C(Nc1ccc(-n2nc(C3CCCO3)cc2C(F)(F)F)cc1)c1ccncc1F (centres unmarked) = 116 to 118 °C

# melting point of `O=C(Nc1ccc(-n2nc(C(F)(F)F)cc2C(F)(F)F)cc1)c1cccc(O)c1` = 221 to 223 °C

# melting point of `O=C(Nc1ccc(-n2nc(C(F)(F)F)cc2C(F)(F)F)cc1)Nc1cccc([N+](=O)[O-])c1` = 203 to 204 °C

# melting point of `Cc1noc(C)c1C(=O)Nc1ccc(-n2nc(C(F)(F)F)cc2C(F)(F)F)c(C(F)(F)F)c1` = 61 to 63 °C

# melting point of `CS(=O)(=O)c1cccc(C(=O)Nc2ccc(-n3nc(C(F)(F)F)cc3C(F)(F)F)cc2)c1` = 194 to 195 °C

# melting point of `CS(=O)(=O)c1ccc(C(=O)Nc2ccc(-n3nc(C(F)(F)F)cc3C(F)(F)F)cc2)cc1` = 216 to 218 °C

# melting point of `O=C(Nc1ccc(-n2nc(C(F)(F)F)cc2C(F)(F)F)cc1)c1cccnc1` = 185 to 188 °C

# melting point of `O=C(Nc1ccc(F)cc1F)c1ccc(-n2nc(C(F)(F)F)cc2C(F)(F)F)cc1` = 176 to 177 °C

# melting point of `O=C(Nc1ccc(-n2nc(C(F)(F)F)cc2C(F)(F)F)nc1)c1cc(F)c(F)cc1Cl` = 113 to 116 °C

# melting point of `O=C(Nc1ccc(-n2nc(C(F)(F)F)cc2C(F)(F)F)cc1)c1cc(Cl)nc(Cl)c1` = 215 to 216 °C

# melting point of `O=C(Nc1ccc(-n2nc(C(F)(F)F)cc2C(F)(F)F)cc1)c1cccnc1F` = 110 to 112 °C

# melting point of `O=C(Nc1ccc(-n2nc(C(F)(F)F)cc2C(F)(F)F)cc1)c1ccnc(Cl)c1` = 183 to 184 °C

# melting point of `O=C(Nc1ccc(-n2nc(C(F)(F)F)cc2C(F)(F)F)cc1)c1ccccc1C(F)(F)F` = 133 to 135 °C

# melting point of `O=C(Nc1ccc(-n2nc(C(F)(F)F)cc2C(F)(F)F)cc1)c1c(F)cccc1F` = 127 to 128 °C

# melting point of `CC(=O)c1cc(C(F)(F)F)nn1-c1ccc(NC(=O)c2cccnc2F)cc1` = 188 to 189 °C

# melting point of `CC(=O)N1CCC(C(=O)Nc2ccc(-n3nc(C(F)(F)F)cc3C(F)(F)F)cc2)CC1` = 94 to 95 °C

# melting point of `O=C(Nc1ccc(-n2nc(C(F)(F)F)cc2OC(F)F)cc1)c1ccncc1F` = 135 to 136 °C

# melting point of `O=C(Nc1ccc(-n2nc(C(F)(F)F)cc2C(F)(F)F)cc1)c1ccc(C(F)(F)F)cc1` = 170 to 172 °C

# melting point of `O=C(Nc1ccc(-n2nc(C(F)(F)F)cc2C(F)(F)F)cc1)c1cc(F)c(Cl)cc1F` = 160 to 162 °C

# melting point of `O=C(Nc1ccc(-n2nc(C(F)(F)F)cc2C(F)(F)F)cc1)c1ccc(F)c(C(F)(F)F)c1` = 142 to 144 °C

# melting point of `O=C(Nc1ccc(-n2nc(C(F)(F)F)cc2C(F)(F)F)cc1)c1ccc(F)cc1C(F)(F)F` = 178 to 179 °C

# melting point of `Nc1ccc(C(=O)Nc2ccc(-n3nc(C(F)(F)F)cc3C(F)(F)F)cc2)cc1` = > 240 °C

# melting point of `Cc1cccc(C(=O)Nc2ccc(-n3nc(C(F)(F)F)cc3C(F)(F)F)cc2)c1` = 137 to 139 °C

# melting point of `O=C(Nc1ccc(-n2nc(C(F)(F)F)cc2C(F)(F)F)cc1)c1ccc([N+](=O)[O-])o1` = 198 to 199 °C

# melting point of `O=C(Nc1ccc(-n2nc(C(F)(F)F)cc2OC(F)F)cc1)c1ccccc1Cl` = 122 to 123 °C

# melting point of `O=C(Nc1ccc(-n2nc(C(F)(F)F)cc2C(F)(F)F)cc1-n1nc(C(F)(F)F)cc1C(F)(F)F)c1ccc(F)cc1F` = 114 to 115 °C

# melting point of `O=C(Nc1ccc(-n2nc(C(F)(F)F)cc2Br)cc1)c1cccc(F)c1F` = 109 to 112 °C

# melting point of `NC(=O)c1ccccc1NC(=O)c1ccc(-n2nc(C(F)(F)F)cc2C(F)(F)F)cc1` = 195 to 196 °C

# melting point of `COc1cc(C(F)(F)F)nn1-c1ccc(NC(=O)c2cccnc2F)cc1` = 153 to 154 °C

# melting point of `N#Cc1cc(C(F)(F)F)nn1-c1ccc(NC(=O)c2cccnc2F)cc1` = 150 to 151 °C
